Dear all, I have gathered published IC50 values for human PDE10A2 (Homo sapiens (Human), UniProt Q9Y233); the list follows.

[
  {
    "COMPOUND": "Cc1cnc(-c2cnn(C)c2C(=O)Nc2cc3nc(-c4ccccc4)nn3cc2F)cn1",
    "IC50": "< 0.005 µM"
  },
  {
    "COMPOUND": "O=C1c2c(-c3cncnc3)cc[n+]([O-])c2CN1CCc1ccc2ccccc2n1",
    "IC50": "< 0.1 µM"
  },
  {
    "COMPOUND": "Cc1cnc2c(C(=O)NC3(c4ccc(C(F)(F)F)cc4F)COCC3O)cnn2c1 (single isomer, unassigned)",
    "IC50": "> 10 µM"
  },
  {
    "COMPOUND": "CC(C)Oc1ccc(-c2ccncc2)c2c1CN(CCc1ccc3ccccc3n1)C2=O",
    "IC50": "< 0.1 µM"
  }
]

====

Dear all, I have gathered published IC50 values for human PDE10A2 (Homo sapiens (Human)); the list follows.

[
  {
    "MOLECULE": "Cn1ncc(-c2nc(C(F)F)cs2)c1C(=O)Nc1ccn2nc(N3CCCC3)nc2c1",
    "MODIFIER_SIGN": "<",
    "IC50, nM": 5
  },
  {
    "MOLECULE": "Cn1ncc(-c2nc(C(F)(F)F)cs2)c1C(=O)NC1CCn2cc(-c3cccc(F)c3)nc2C1 (centres unmarked)",
    "MODIFIER_SIGN": "<",
    "IC50, nM": 5
  },
  {
    "MOLECULE": "Cc1cnc2c(C(=O)NC3(c4ccc(C(F)(F)F)cc4F)COCC3(C)O)cnn2c1 (centres unmarked)",
    "MODIFIER_SIGN": ">",
    "IC50, nM": 10000
  },
  {
    "MOLECULE": "O=C1CN(C(=O)c2ccncc2NC(=O)c2nc(C3CC3)ccc2Nc2cncnc2)CCN1",
    "MODIFIER_SIGN": "=",
    "IC50, nM": 232
  },
  {
    "MOLECULE": "CNC(=O)c1ccc(-c2nccnc2C2CCN(c3ccc4cccc(F)c4n3)CC2)cc1F",
    "MODIFIER_SIGN": "=",
    "IC50, nM": 7.5
  },
  {
    "MOLECULE": "CN(C)C(=O)c1cnn(C)c1C(=O)Nc1ccn2cc(-c3cccc(F)c3)nc2n1",
    "MODIFIER_SIGN": "=",
    "IC50, nM": 11.2
  },
  {
    "MOLECULE": "Cn1ncc(NC(=O)c2nc(C3CC3)cnc2Nc2cncnc2)c1C(=O)NC1(C)COC1",
    "MODIFIER_SIGN": "=",
    "IC50, nM": 3.6
  },
  {
    "MOLECULE": "Cn1cc(NC(=O)c2nc(C3CC3)ccc2Nc2cncnc2)c(C(N)=O)n1",
    "MODIFIER_SIGN": "=",
    "IC50, nM": 7.5
  },
  {
    "MOLECULE": "COc1cccc([C@H]2CN(c3ncnc4cc(OC)c(OC)cc34)CCN2)c1",
    "MODIFIER_SIGN": "=",
    "IC50, nM": 14
  },
  {
    "MOLECULE": "Cc1cnc2c(C(=O)NC3(c4ccc(Cl)cc4F)CCOCC3)c(C)nn2c1",
    "MODIFIER_SIGN": "=",
    "IC50, nM": 550
  },
  {
    "MOLECULE": "CC1CCCN1C(=O)c1cnn(C)c1C(=O)Nc1ccn2cc(-c3ccccc3)nc2n1 (centres unmarked)",
    "MODIFIER_SIGN": "=",
    "IC50, nM": 5.1
  },
  {
    "MOLECULE": "Cc1ncc(C)n2nc(CCc3nc(N4CCC4)nn3C)nc12",
    "MODIFIER_SIGN": "=",
    "IC50, nM": 1.4
  },
  {
    "MOLECULE": "CNC(=O)c1cc(CCc2nc(N3CCCC3)nn2C)nn2c(C)c(C(F)(F)F)nc12",
    "MODIFIER_SIGN": "=",
    "IC50, nM": 13.7
  },
  {
    "MOLECULE": "Cn1ncc(NC(=O)c2nc(C3CC3)cnc2Nc2cncnc2)c1C(=O)N1CCOCC1",
    "MODIFIER_SIGN": "=",
    "IC50, nM": 148
  },
  {
    "MOLECULE": "O=C1c2c(cccc2N2CCOCC2)CN1CCc1ccc2ccccc2n1",
    "MODIFIER_SIGN": "<",
    "IC50, nM": 100
  },
  {
    "MOLECULE": "Cc1ncc(C)n2nc(CCc3nc(N4CCC(F)(F)C4)nn3C)nc12",
    "MODIFIER_SIGN": "=",
    "IC50, nM": 166
  },
  {
    "MOLECULE": "CC(C)(O)CNC(=O)c1cc(OCCO)ccc1NC(=O)c1nc(C2CC2)cnc1Nc1cncnc1",
    "MODIFIER_SIGN": "=",
    "IC50, nM": 0.5
  },
  {
    "MOLECULE": "O=C1c2c(-c3ccncc3)ccnc2CN1CCc1ccc2ncccc2n1",
    "MODIFIER_SIGN": "<",
    "IC50, nM": 100
  },
  {
    "MOLECULE": "Oc1ncnc2c1nc(C(F)(F)F)n2[C@H]1C[C@H](Nc2ncc3ccccc3n2)C1",
    "MODIFIER_SIGN": "=",
    "IC50, nM": 440
  },
  {
    "MOLECULE": "CC1(C)C(=O)N([C@H]2C[C@H](Nc3ccnc(Cl)n3)C2)c2ncccc21",
    "MODIFIER_SIGN": "=",
    "IC50, nM": 352
  },
  {
    "MOLECULE": "Cc1ncc(C)n2nc(CCc3cn(C)c(-c4ccccc4)n3)nc12",
    "MODIFIER_SIGN": "=",
    "IC50, nM": 45
  },
  {
    "MOLECULE": "Cc1ncc(C)n2nc(CCc3nc(-c4nccs4)cn3C)nc12",
    "MODIFIER_SIGN": "=",
    "IC50, nM": 2.7
  },
  {
    "MOLECULE": "Cc1nc(CNC(=O)c2cnn(C)c2C(=O)Nc2ccn3cc(-c4ccccc4)nc3n2)no1",
    "MODIFIER_SIGN": "=",
    "IC50, nM": 865
  },
  {
    "MOLECULE": "Cc1ccnc(N[C@H]2C[C@H](N3C(=O)C(C)(C)c4cccnc43)C2)c1",
    "MODIFIER_SIGN": "=",
    "IC50, nM": 4.85
  },
  {
    "MOLECULE": "CCN(C)C(=O)c1nn(C)cc1C(=O)Nc1ccn2cc(-c3ccccc3)nc2n1",
    "MODIFIER_SIGN": "=",
    "IC50, nM": 25.7
  }
]

====

Dear all, I have gathered published log10(IC50) values for human PDE10A2 (Homo sapiens (Human), UniProt Q9Y233); the list follows.
MEASURE: log10(IC50) (log10 of the value in nM)

[
  {
    "SAMPLE_SMILES": "CN(C)C(=O)c1nn(CC(F)(F)F)cc1NC(=O)c1nc(C2CC2)ccc1Nc1cncnc1",
    "ASSAYED_SYSTEM": "human PDE10A2 (Homo sapiens (Human), UniProt Q9Y233)",
    "MEASURE": "log10(IC50)",
    "DATA_VALUE": 2.53
  },
  {
    "SAMPLE_SMILES": "CC(C)c1ccc(NC(=O)c2nc(C3CC3)cnc2Nc2cncnc2)c(C(=O)NCC(C)(C)O)c1",
    "ASSAYED_SYSTEM": "human PDE10A2 (Homo sapiens (Human), UniProt Q9Y233)",
    "MEASURE": "log10(IC50)",
    "DATA_VALUE": 0.04
  },
  {
    "SAMPLE_SMILES": "CC(C)(O)CNC(=O)c1cc(Cl)ncc1NC(=O)c1nc(C2CC2)cnc1Nc1cncnc1",
    "ASSAYED_SYSTEM": "human PDE10A2 (Homo sapiens (Human), UniProt Q9Y233)",
    "MEASURE": "log10(IC50)",
    "DATA_VALUE": 0.20
  },
  {
    "SAMPLE_SMILES": "CCc1cnc(N[C@H]2C[C@H](N3C(=O)C(C)(C)c4cccnc43)C2)nc1",
    "ASSAYED_SYSTEM": "human PDE10A2 (Homo sapiens (Human), UniProt Q9Y233)",
    "MEASURE": "log10(IC50)",
    "DATA_VALUE": 0.42
  },
  {
    "SAMPLE_SMILES": "CN(Cc1ccc(Br)cn1)C(=O)c1cnn(C)c1C(=O)Nc1ccn2cc(-c3ccccc3)nc2n1",
    "ASSAYED_SYSTEM": "human PDE10A2 (Homo sapiens (Human), UniProt Q9Y233)",
    "MEASURE": "log10(IC50)",
    "DATA_VALUE": 2.00
  },
  {
    "SAMPLE_SMILES": "Cn1c(=O)n([C@H]2C[C@H](Nc3nc4ccc(F)cc4s3)C2)c2ncc(F)cc21",
    "ASSAYED_SYSTEM": "human PDE10A2 (Homo sapiens (Human), UniProt Q9Y233)",
    "MEASURE": "log10(IC50)",
    "DATA_VALUE": -0.06
  },
  {
    "SAMPLE_SMILES": "COc1nc2cccnc2n1C1CN(c2nccc(C)n2)C1",
    "ASSAYED_SYSTEM": "human PDE10A2 (Homo sapiens (Human), UniProt Q9Y233)",
    "MEASURE": "log10(IC50)",
    "DATA_VALUE": 0.68
  }
]
